Origin of values: patent US20250145606A1

molecular target: CSF1R (Homo sapiens (Human)); assay: Inhibition of CSF1R kinase activity (HTRF KinEASE-TK); settings: biochemical, HTRF KinEASE-TK
Sequence (P07333 20-972): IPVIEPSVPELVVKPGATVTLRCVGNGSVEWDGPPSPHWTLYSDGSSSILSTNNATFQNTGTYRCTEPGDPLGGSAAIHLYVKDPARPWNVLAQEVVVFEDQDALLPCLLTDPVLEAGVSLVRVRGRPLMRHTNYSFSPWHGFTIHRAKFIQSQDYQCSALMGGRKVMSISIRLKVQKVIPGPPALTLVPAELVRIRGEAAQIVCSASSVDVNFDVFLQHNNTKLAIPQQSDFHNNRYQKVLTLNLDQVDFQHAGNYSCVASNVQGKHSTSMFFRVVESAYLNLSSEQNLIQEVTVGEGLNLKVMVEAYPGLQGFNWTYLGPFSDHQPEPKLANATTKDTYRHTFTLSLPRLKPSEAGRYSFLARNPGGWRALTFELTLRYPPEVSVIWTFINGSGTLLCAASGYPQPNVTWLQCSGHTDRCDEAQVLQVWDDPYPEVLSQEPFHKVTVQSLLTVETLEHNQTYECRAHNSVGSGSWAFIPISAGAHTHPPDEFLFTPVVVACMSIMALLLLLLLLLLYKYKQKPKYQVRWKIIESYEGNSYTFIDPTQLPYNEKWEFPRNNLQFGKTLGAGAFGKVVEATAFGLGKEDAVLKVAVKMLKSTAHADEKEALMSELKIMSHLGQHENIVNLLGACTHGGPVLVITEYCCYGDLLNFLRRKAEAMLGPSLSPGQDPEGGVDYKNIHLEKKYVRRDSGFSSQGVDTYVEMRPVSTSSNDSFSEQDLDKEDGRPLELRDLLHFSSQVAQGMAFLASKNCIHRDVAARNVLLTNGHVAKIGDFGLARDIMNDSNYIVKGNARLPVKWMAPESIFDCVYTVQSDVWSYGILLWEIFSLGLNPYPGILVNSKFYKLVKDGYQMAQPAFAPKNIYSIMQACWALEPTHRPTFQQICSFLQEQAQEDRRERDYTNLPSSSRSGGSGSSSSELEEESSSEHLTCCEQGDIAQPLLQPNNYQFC
Listed here: items and their measured IC50.

compound | IC50
Nc1ncc(C(=O)Nc2cc(C(=O)Nc3ccc(OC(F)F)cn3)c(F)cc2F)s1 [Example 219] | > 1000 nM
Nc1ncc(C(=O)Nc2cc(C(=O)Nc3cnc(C4CC4)nc3)c(F)cc2Cl)s1 [Example 204] | 100 to 1000 nM
COCc1ccc(NC(=O)c2cc(NC(=O)c3cnc(C)s3)c(C)cc2F)nc1 [Example 37] | > 1000 nM
Cc1cc(F)c(C(=O)Nc2ccc(F)cc2)cc1NC(=O)c1cnc(N)s1 [Example 233] | > 1000 nM
Cc1ncc(C(=O)Nc2cc(C(=O)Nc3ncc(C4CC4)cn3)c(F)cc2C)s1 [Example 44] | > 1000 nM
Cc1cc(F)c(C(=O)Nc2ccc3c(c2)C(C)(C)C(=O)N3)cc1NC(=O)c1cnc(N)s1 [Example 184] | 100 to 1000 nM
Nc1ncc(C(=O)Nc2cc(C(=O)Nc3ccc(OC4CC4)cn3)c(F)cc2Cl)s1 [Example 209] | 100 to 1000 nM
Cc1cc(F)c(C(=O)Nc2ncc(C(C)C)s2)cc1NC(=O)c1cnc(N)s1 [Example 146] | < 100 nM
Cc1cc(F)c(C(=O)Nc2nc(C3CC3)cs2)cc1NC(=O)c1cnc(N)s1 [Example 170] | 100 to 1000 nM
Cc1cc(F)c(C(=O)Nc2cc(C3CC3)ccn2)cc1NC(=O)c1cnc(N)s1 [Example 190] | < 100 nM
Cc1ncc(C(=O)Nc2cc(C(=O)Nc3ccnc(CC4CC4)n3)c(F)cc2C)s1 [Example 100] | > 1000 nM
Cc1cc(F)c(C(=O)Nc2ccc(OC3CC3)cn2)cc1NC(=O)c1cnc(NC(=O)C2CC2)s1 [Example 238] | 100 to 1000 nM
Cc1cc(F)c(C(=O)N[C@H]2C[C@H]2F)cc1NC(=O)c1cnc(N)s1 [Example 136] | > 1000 nM
Cc1cc(F)c(C(=O)Nc2cnn(C3CC3)c2)cc1NC(=O)c1cnc(N)s1 [Example 161] | 100 to 1000 nM
Cc1cc(F)c(C(=O)Nc2ccc(C3CC3)cn2)cc1NC(=O)c1cnc(N)s1 [Example 130] | 100 to 1000 nM
Nc1ncc(C(=O)Nc2cc(C(=O)Nc3ccc(OC4CC4)cn3)c(F)cc2Br)s1 [Example 236] | 100 to 1000 nM
CC(=O)Nc1ncc(C(=O)Nc2cc(C(=O)Nc3ccc(OC4CC4)cn3)c(F)cc2C)s1 [Example 240] | > 1000 nM
Cc1cc(F)c(C(=O)Nc2ccc(OC(C)C)nn2)cc1NC(=O)c1cnc(N)s1 [Example 259] | 100 to 1000 nM
Nc1ncc(C(=O)Nc2cc(C(=O)Nc3ccc(OCC(F)F)cn3)c(F)cc2F)s1 [Example 213] | > 1000 nM
Cc1cc(F)c(C(=O)Nc2ccc(Cl)cc2)cc1NC(=O)c1cnc(N)s1 [Example 231] | 100 to 1000 nM
Cc1ncc(C(=O)Nc2cc(C(=O)Nc3cccc(C(F)(F)F)n3)c(F)cc2C)s1 [Example 55] | > 1000 nM
Cc1cc(F)c(C(=O)Nc2cc(C3CC3)[nH]n2)cc1NC(=O)c1cnc(N)s1 [Example 177] | 100 to 1000 nM
Cc1cc(F)c(C(=O)NCC2(F)CCC2)cc1NC(=O)c1cnc(N)s1 [Example 192] | > 1000 nM
Cc1c(F)cc(C(=O)Nc2ccc(OC3CC3)cn2)cc1NC(=O)c1cnc(N)s1 [Example 243] | < 100 nM
Cc1ncc(C(=O)Nc2cc(C(=O)Nc3ccc(OC4CC4)cn3)c(F)cc2Cl)s1 [Example 49] | > 1000 nM
CCc1ccc(NC(=O)c2cc(NC(=O)c3cnc(C)s3)c(C)cc2F)nc1 [Example 82] | > 1000 nM
Nc1ncc(C(=O)Nc2cc(C(=O)Nc3ccc(C(F)F)cn3)c(F)cc2F)s1 [Example 217] | > 1000 nM
Cc1ncc(C(=O)Nc2cc(C(=O)Nc3cnc(OC4CC(F)(F)C4)cn3)c(F)cc2C)s1 [Example 32] | > 1000 nM
Cc1cc(F)c(C(=O)Nc2ccc(OC3CC3)cn2)cc1NC(=O)c1cnc(NC(=O)[C@H]2CCOC2)s1 [Example 108] | > 1000 nM
Cc1cc(F)c(C(=O)Nc2ccc(C(F)F)cn2)cc1NC(=O)c1cnc(N)s1 [Example 226] | 100 to 1000 nM
Cc1ncc(C(=O)Nc2cc(C(=O)Nc3ccc(CC(F)(F)F)nc3)c(F)cc2C)s1 [Example 98] | > 1000 nM
Cc1ncc(C(=O)Nc2cc(C(=O)Nc3ccn(CC4CC4)n3)c(F)cc2C)s1 [Example 70] | > 1000 nM
Cc1ncc(C(=O)Nc2cc(C(=O)Nc3cnc(N4CCCC4)cn3)c(F)cc2C)s1 [Example 85] | > 1000 nM

====

Listed here: items and their measured pIC50.
biological target: c-Kit (Homo sapiens (Human)); assay: Inhibition of c-Kit kinase activity (HTRF KinEASE-TK); type: biochemical; conditions: biochemical, HTRF KinEASE-TK
Sequence (P10721 26-976): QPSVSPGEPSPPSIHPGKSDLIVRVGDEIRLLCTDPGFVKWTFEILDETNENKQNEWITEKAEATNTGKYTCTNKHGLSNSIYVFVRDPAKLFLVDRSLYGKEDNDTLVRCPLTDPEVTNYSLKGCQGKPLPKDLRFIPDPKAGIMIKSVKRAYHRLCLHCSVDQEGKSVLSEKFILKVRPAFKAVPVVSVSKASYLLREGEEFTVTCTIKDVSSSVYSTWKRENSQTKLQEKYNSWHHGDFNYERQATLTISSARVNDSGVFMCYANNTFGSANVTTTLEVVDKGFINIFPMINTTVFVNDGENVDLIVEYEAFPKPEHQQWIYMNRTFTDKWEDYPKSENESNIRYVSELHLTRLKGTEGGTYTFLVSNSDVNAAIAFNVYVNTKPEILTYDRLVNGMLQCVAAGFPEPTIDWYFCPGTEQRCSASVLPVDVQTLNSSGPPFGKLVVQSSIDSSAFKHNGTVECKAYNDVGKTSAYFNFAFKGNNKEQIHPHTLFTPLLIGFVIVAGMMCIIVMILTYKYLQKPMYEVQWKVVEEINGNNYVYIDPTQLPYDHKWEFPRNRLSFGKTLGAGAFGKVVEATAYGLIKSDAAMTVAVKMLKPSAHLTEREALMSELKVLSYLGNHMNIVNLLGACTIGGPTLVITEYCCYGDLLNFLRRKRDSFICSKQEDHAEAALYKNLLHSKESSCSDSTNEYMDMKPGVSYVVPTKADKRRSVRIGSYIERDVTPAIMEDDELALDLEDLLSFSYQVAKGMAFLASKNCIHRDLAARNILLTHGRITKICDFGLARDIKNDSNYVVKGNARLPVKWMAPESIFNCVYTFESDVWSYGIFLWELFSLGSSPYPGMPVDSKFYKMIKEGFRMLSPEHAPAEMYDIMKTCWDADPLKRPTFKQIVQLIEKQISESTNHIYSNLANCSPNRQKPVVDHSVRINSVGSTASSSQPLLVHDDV
pIC50: −log10 of the molar value.

sampleSmiles | pIC50
CCc1cc(F)c(C(=O)Nc2ccc(OC3CC3)cn2)cc1NC(=O)c1cnc(N)s1 | 6.00 to 7.00
COc1ccnc(NC(=O)c2cc(NC(=O)c3cnc(N)s3)c(C)cc2F)c1 | > 7.00
Cc1cc(F)c(C(=O)N[C@H]2C[C@@H](C(N)=O)C2)cc1NC(=O)c1cnc(N)s1 | 6.00 to 7.00
CCOCc1ccc(NC(=O)c2cc(NC(=O)c3cnc(N)s3)c(C)cc2F)nc1 | > 7.00
Cc1ncc(C(=O)Nc2cc(C(=O)Nc3ccc(C4CC4)nn3)c(F)cc2C)s1 | > 7.00
Cc1ncc(C(=O)Nc2cc(C(=O)Nc3cnc(OCC(F)F)cn3)c(F)cc2C)s1 | > 7.00
Cc1cc(F)c(C(=O)Nc2ccc(OCC3CC3)cn2)cc1NC(=O)c1cnc(N)s1 | > 7.00
Cc1cc(F)c(C(=O)Nc2ccc(O[C@H]3CCOC3)cn2)cc1NC(=O)c1cnc(N)s1 | > 7.00

====

Listed here: items and their measured IC50.
Target: PDGFRβ (Homo sapiens (Human))
Sequence (P09619 33-1106): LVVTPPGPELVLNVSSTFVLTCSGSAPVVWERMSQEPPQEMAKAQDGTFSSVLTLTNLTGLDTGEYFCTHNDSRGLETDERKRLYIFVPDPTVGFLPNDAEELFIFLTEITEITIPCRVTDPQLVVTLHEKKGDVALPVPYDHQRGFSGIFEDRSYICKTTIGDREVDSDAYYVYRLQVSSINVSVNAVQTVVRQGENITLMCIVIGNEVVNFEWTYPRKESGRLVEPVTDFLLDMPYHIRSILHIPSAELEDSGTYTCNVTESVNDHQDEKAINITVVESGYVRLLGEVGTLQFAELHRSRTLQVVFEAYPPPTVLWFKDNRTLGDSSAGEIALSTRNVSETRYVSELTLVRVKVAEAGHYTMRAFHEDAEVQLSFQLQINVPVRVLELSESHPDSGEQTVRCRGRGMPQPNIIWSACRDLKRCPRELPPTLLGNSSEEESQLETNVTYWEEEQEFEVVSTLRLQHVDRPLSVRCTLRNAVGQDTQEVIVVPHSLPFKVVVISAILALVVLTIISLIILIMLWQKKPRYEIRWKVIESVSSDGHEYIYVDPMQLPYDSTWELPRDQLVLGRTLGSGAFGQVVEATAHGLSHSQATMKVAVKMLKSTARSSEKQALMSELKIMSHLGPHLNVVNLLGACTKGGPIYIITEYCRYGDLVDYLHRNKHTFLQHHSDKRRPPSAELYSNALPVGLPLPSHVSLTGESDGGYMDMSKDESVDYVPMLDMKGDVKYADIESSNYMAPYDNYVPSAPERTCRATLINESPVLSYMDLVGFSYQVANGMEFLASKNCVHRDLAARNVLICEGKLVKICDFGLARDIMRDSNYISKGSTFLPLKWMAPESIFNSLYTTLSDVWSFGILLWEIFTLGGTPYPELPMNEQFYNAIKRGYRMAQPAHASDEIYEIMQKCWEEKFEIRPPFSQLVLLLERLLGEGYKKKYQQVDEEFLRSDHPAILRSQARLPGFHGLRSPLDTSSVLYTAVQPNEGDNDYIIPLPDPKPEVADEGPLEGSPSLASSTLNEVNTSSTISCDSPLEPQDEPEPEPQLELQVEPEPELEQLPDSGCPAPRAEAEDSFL
Assay: Inhibition of PDGFRβ kinase activity (HTRF KinEASE-TK)
Conditions: biochemical, HTRF KinEASE-TK
Protocol: Inhibition of c-Kit, PDGFRα, PDGFRβ, CSFIR and FLT3 Kinase Activity Compounds were evaluated to determine the potency with which they inhibit the kinase activity of the following panel of tyrosine kinases: c-Kit (SignalChem, Product #: K06-11BG), PDGFRα (SignalChem, Product #: P12-18G), PDGFRβ (SignalChem, Product #: P13-11G), CSFIR (SignalChem, Product #: C74-11G) and FLT3 (Invitrogen, Product #: PR4666C). […]

compound | IC50
COc1ccc(NC(=O)c2cc(NC(=O)c3cnc(N)s3)c(C)cc2F)nc1 [Example 131] | > 1 µM
Cc1cc(F)c(C(=O)Nc2ccc(OC3CC3)cn2)cc1NC(=O)c1cncs1 [Example 169] | > 1 µM
Cc1cc(F)c(C(=O)Nc2ccc(Cl)cc2)cc1NC(=O)c1cnc(N)s1 [Example 231] | 0.1 to 1 µM
Cc1cc(Cl)c(C(=O)Nc2ccc(OC3CC3)cn2)cc1NC(=O)c1cnc(N)s1 [Example 224] | 0.1 to 1 µM
CCc1ccc(NC(=O)c2cc(NC(=O)c3cnc(N)s3)c(F)cc2F)nc1 [Example 214] | > 1 µM
Cc1cc(F)c(C(=O)NCCc2ccc(F)cc2)cc1NC(=O)c1cnc(N)s1 [Example 165] | < 0.1 µM
Cc1ncc(C(=O)Nc2cc(C(=O)Nc3ccc(CC(F)(F)F)cn3)c(F)cc2Cl)s1 [Example 46] | > 1 µM
Cc1nnc(NC(=O)c2cc(NC(=O)c3cnc(N)s3)c(C)cc2F)s1 [Example 162] | > 1 µM
Cc1cc(F)c(C(=O)Nc2ccc(OC3CC3)c(C)n2)cc1NC(=O)c1cnc(N)s1 [Example 152] | 0.1 to 1 µM
Cc1cc(F)c(C(=O)Nc2ccc(C(C)(C)O)cn2)cc1NC(=O)c1cnc(N)s1 [Example 113] | < 0.1 µM
Cc1cc(F)c(C(=O)Nc2ccn(C(C)(C)C)n2)cc1NC(=O)c1cnc(N)s1 [Example 141] | < 0.1 µM
Cc1cc(F)c(C(=O)Nc2ncc(C(C)C)s2)cc1NC(=O)c1cnc(N)s1 [Example 146] | < 0.1 µM
Cc1ncc(C(=O)Nc2cc(C(=O)Nc3cnc(N4CCCC4)cn3)c(F)cc2C)s1 [Example 85] | > 1 µM
Cc1cc(F)c(C(=O)Nc2cc(C3CC3)[nH]n2)cc1NC(=O)c1cnc(N)s1 [Example 177] | 0.1 to 1 µM
Cc1cc(F)c(C(=O)Nc2cc(C3CC3)ccn2)cc1NC(=O)c1cnc(N)s1 [Example 190] | < 0.1 µM
Cc1cc(F)c(C(=O)Nc2ccccc2F)cc1NC(=O)c1cnc(N)s1 [Example 234] | > 1 µM
Cc1cc(F)c(C(=O)Nc2ccc(C3CC3)cn2)cc1NC(=O)c1cnc(N)s1 [Example 130] | 0.1 to 1 µM
